- Study Target: T1, hPRLR.mFc (soluble dimeric human PRLR) (human)
- T1 construct: dimeric construct
- T1 chain: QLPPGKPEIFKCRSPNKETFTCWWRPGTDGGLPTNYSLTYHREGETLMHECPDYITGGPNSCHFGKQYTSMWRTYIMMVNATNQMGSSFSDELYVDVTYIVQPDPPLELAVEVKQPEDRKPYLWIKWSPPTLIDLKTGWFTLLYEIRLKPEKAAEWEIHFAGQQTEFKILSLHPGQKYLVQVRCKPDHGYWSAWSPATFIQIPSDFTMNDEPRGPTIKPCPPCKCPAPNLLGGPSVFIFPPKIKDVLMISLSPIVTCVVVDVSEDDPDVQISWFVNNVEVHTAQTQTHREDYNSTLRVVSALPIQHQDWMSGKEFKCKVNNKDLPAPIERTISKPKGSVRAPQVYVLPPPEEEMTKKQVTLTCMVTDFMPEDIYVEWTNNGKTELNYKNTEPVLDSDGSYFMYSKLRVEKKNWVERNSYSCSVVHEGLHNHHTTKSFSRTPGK
- Protocol: SPR, 37C, mAb capture
Quantity Measured: T½ (h)
Give just the number in h; leave the unit off.

Previously resolved entries follow.
H1H6953N (antibody, human IgG1, V domains shown, also called H1M6953N) VH: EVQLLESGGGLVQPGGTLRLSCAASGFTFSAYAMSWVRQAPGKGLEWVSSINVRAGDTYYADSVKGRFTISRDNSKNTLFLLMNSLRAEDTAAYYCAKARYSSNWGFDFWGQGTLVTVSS VL: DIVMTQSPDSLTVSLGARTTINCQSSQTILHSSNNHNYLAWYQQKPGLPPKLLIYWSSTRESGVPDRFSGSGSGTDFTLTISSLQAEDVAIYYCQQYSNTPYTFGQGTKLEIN    1.13
H1H6762P (antibody, human IgG1, V domains shown, human IgG1 Fc (H1H)) VH: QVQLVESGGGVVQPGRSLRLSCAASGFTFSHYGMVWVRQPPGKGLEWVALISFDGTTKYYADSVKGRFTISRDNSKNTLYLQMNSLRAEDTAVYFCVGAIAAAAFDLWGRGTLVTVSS VL: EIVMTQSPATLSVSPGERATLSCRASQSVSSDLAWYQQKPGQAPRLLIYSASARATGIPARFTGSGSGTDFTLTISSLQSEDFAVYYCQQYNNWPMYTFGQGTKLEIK    1.87

Please turn your attention to the following entry.
Briefly, T½ measured for H1H6782P (antibody, human IgG1, V domains shown, human IgG1 Fc (H1H)) VH: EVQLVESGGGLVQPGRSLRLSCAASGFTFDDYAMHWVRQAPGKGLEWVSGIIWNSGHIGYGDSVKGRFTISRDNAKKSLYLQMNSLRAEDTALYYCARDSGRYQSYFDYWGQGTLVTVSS VL: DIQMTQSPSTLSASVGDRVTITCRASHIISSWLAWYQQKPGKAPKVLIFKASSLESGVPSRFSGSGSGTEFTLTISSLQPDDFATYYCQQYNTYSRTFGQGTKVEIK : 1.48
